# reported IC50; entries follow
Run description: Inhibition of bacterial beta-lactamase KPC-2 using nitrocefin as substrate incubated for 20 mins
Parameters: species or system Bacteria

Compound: NCC[S@@+]([O-])[C@@H]1CC[C@@H]2CN1C(=O)N2O[C@H](F)C(=O)O.O=C(O)C(F)(F)F
IC50 / µM: 0.069
--
Compound: O=C([O-])[C@@H](F)ON1C(=O)N2C[C@H]1CC[C@H]2[S@+]([O-])CCO.[Na+]
IC50 / µM: 0.036
--
Compound: NC(=O)/C(C[S@@+]([O-])[C@@H]1CC[C@@H]2CN1C(=O)N2O[C@H](F)C(=O)[O-])=N\O.[Na+] (stereo in doubt)
IC50 / µM: 0.132
--
Compound: O=C([O-])[C@@H](F)ON1C(=O)N2C[C@H]1CC[C@H]2[S@+]([O-])CF.[Na+]
IC50 / µM: 0.09
--
Compound: NS(=O)(=O)[C@@H]1CC[C@@H]2CN1C(=O)N2OC(F)(F)C(=O)O.[Na+]
IC50 / µM: 0.052
--
Compound: O=C([O-])[C@@H](F)ON1C(=O)N2C[C@H]1CC[C@H]2[S@+]([O-])Cc1c[nH]cn1.[Na+]
IC50 / µM: 0.078
--
Compound: NC(=O)[C@@H]1CC[C@@H]2CN1C(=O)N2OS(=O)(=O)O
IC50 / µM: 0.072
--
Compound: C[S@@+]([O-])[C@@H]1CC[C@@H]2CN1C(=O)N2O[C@H](F)C(=O)[O-].[Na+]
IC50 / µM: 0.014
--
Compound: NS(=O)(=O)[C@@H]1CC[C@@H]2CN1C(=O)N2O[C@H](F)C(=O)[O-].[Na+]
IC50 / µM: 0.977
--
Compound: O=C([O-])[C@@H](F)ON1C(=O)N2C[C@H]1CC[C@H]2[S@+]([O-])CCCO.[Na+]
IC50 / µM: 0.038
--
Compound: CC(=O)NCC[S@@+]([O-])[C@@H]1CC[C@@H]2CN1C(=O)N2O[C@H](F)C(=O)[O-].[Na+]
IC50 / µM: 0.007
--
Compound: O=C([O-])[C@@H](F)ON1C(=O)N2C[C@H]1CC[C@H]2[S@+]([O-])C[C@@H](O)CO.[Na+]
IC50 / µM: 0.056
